# Tested on: MS2 coat protein
# protocolDescription: apparent Kd, MS2 coat protein; higher = weaker binding; RNA-MaP array; tryptophan 2.4 mM where present
# conditionSummary: ligand present: tryptophan; designed as: OFF switch for tryptophan
metric: apparent Kd

>  <sequenceContent>
UUUGUAAUUGUCUGGUAGAUUUAUUUAUUUCGAGGACCGGUACGGCCGCCACUCGUUAAUUACAUGAGGAUCACCCAUGUUAGCU

>  <assayedTarget>
MS2 coat protein

>  <recordedMeasurement>
0.0132 µM

$$$$
>  <sequenceContent>
CCUAUCCAGUCGGCCGCCACUGACCAUUUGGAACAGUGGGUGAAAACAUGAGGAUCACCCAUGUACAGGACCGGGACUGUAUAGG

>  <assayedTarget>
MS2 coat protein

>  <recordedMeasurement>
0.042 µM

$$$$
>  <sequenceContent>
AGAUUCGACACGGCCGCCACUCGAGACGGAUUUCCGAGUGUCGAACAUGAGGAUCACCCAUGUCCGAGGACCGGGUGUUGAGUCU

>  <assayedTarget>
MS2 coat protein

>  <recordedMeasurement>
0.401 µM

$$$$
>  <sequenceContent>
UAACAUGAGGAUCACCCAUGUAUACUUAGUCGAGGACCGGUACGGCCGCCACUCGUACUUCAAGAUUUGGCGGAAAAUGUAUGUA

>  <assayedTarget>
MS2 coat protein

>  <recordedMeasurement>
0.0151 µM

$$$$
>  <sequenceContent>
AGCGUGCAUCGGAAAACGAUGUACGCAAAUCGAGGACCGGUACGGCCGCCACUCGUCCUCAACAUGAGGAUCACCCAUGUAAUAA

>  <assayedTarget>
MS2 coat protein

>  <recordedMeasurement>
0.0347 µM

$$$$
>  <sequenceContent>
GGGCGCUAUCCCGCGAGGGAUAGCGUUCGUCGAGGACCGGUACGGCCGCCACUCGAACGAGUGGUGACAUGAGGAUCACCCAUGU

>  <assayedTarget>
MS2 coat protein

>  <recordedMeasurement>
0.0688 µM

$$$$
>  <sequenceContent>
GUUAUAACAAAAGUUGUAACAGUGGGUGAACGAGGACCGGUACGGCCGCCACUCGGACAUGAGGAUCACCCAUGUCCAUGUGAAA

>  <assayedTarget>
MS2 coat protein

>  <recordedMeasurement>
0.0403 µM

$$$$
>  <sequenceContent>
CUGUGUCCUUCGGCCGCCACUACAUGAGGAUCACCCAUGUCGUUACGGCUCCCAAUGACGCUUUGUAGGACCGGGAAGGAGUAUG

>  <assayedTarget>
MS2 coat protein

>  <recordedMeasurement>
0.0158 µM

$$$$
>  <sequenceContent>
ACAUGACAACAUGAGGAUCACCCAUGUCAUCGAGGACCGGUACGGCCGCCACUCGGUCAAUAUGAUACUUGUCAUGAACAUGAGG

>  <assayedTarget>
MS2 coat protein

>  <recordedMeasurement>
0.0235 µM

$$$$
>  <sequenceContent>
GUUAUAUCAAAAGAUGUAACAGUGGGUGAACGAGGACCGGUACGGCCGCCACUCGGACAUGAGGAUCACCCAUGUCCAUGUGAAA

>  <assayedTarget>
MS2 coat protein

>  <recordedMeasurement>
0.0371 µM

$$$$
>  <sequenceContent>
CGUAUUGGAAACAGUACGAGUGAUCCGGUCCGAGGACCGGUACGGCCGCCACUCGAAAAUAAAUAACAUGAGGAUCACCCAUGUA

>  <assayedTarget>
MS2 coat protein

>  <recordedMeasurement>
0.0239 µM

$$$$
>  <sequenceContent>
GGUUGAUGACAUGAGGAUCACCCAUGUAGGCGAGGACCGGUACGGCCGCCACUCGACAUGAGGAUCACCCAUGUCGGCGUCCGUG

>  <assayedTarget>
MS2 coat protein

>  <recordedMeasurement>
0.0262 µM

$$$$
>  <sequenceContent>
GGUAUGUAUUCGGAAACGAAUGCAUACCAACGAGGACCGGUACGGCCGCCACUCGGCGGCGAUCAACAUGAGGAUCACCCAUGUA

>  <assayedTarget>
MS2 coat protein

>  <recordedMeasurement>
0.031 µM

$$$$

----------
# Test system: MS2 coat protein
# protocolDescription: apparent Kd, MS2 coat protein; higher = weaker binding; RNA-MaP array; tryptophan 2.4 mM where present
# conditionSummary: designed as: ON switch for tryptophan; no ligand
Here, each record is paired with measured apparent Kd data.
metric: apparent Kd

>  <sequenceContent>
CUACAUUUGUAGAAACCGGUCAACAAUAAUCGAGGACCGGUACGGCCGCCACUCGUAUAAUUUAUUACAUGAGGAUCACCCAUGU

>  <recordedMeasurement>
13.7 nM

$$$$
>  <sequenceContent>
UAAACUACACAUGAGGAUCACCCAUGUGGCCGAGGACCGGUACGGCCGCCACUCGUGUGUUAAUAAAAGAACCGCAAAGUUCUGU

>  <recordedMeasurement>
268 nM

$$$$
>  <sequenceContent>
AAGGCACGAGACAUGAGGAUCACCCAUGUUCGAGGACCGGUACGGCCGCCACUCGGUGGACUCAUGGUAAAGCCGGUGAGCCAAA

>  <recordedMeasurement>
19.4 nM

$$$$
>  <sequenceContent>
GAGUACACUACGGCCGCCACUCAAGGAGCUACAUAGCUCCUAGACAUGAGGAUCACCCAUGUACCGAGGACCGGGUAGAUCCUUA

>  <recordedMeasurement>
187 nM

$$$$
>  <sequenceContent>
GGGUGGUAGGCGGCCGCCACUGAUUUUUAUUUAUAGAUGACAUGAGGAUCACCCAUGUUGAUAUGCAGGACCGGGCCUGUUGUUG

>  <recordedMeasurement>
15.1 nM

$$$$
>  <sequenceContent>
GCUACAUGAGGAUCACCCAUGUAUGCGAGUCGAGGACCGGUACGGCCGCCACUCGCUUAACAUGAGGAUCACCCAUGUUACUCGC

>  <recordedMeasurement>
64.6 nM

$$$$
>  <sequenceContent>
CAUGCCAGGGCGGCCGCCACUGUGGCUACGGUACAUGAGGAUCACCCAUGUUUGUGGUUGAUCUACAGGACCGGGCCCUAGCACG

>  <recordedMeasurement>
118 nM

$$$$
>  <sequenceContent>
AAUAAUAGGUGAUCCUAACGAGUGGCAUAACGAGGACCGGUACGGCCGCCACUCGAACAUGAGGAUCACCCAUGUAGUCACUCGA

>  <recordedMeasurement>
189 nM

$$$$
>  <sequenceContent>
CUUAUAUAUACGGCCGCCACUUACUCAUGAGGUAACAACAUGAGGAUCACCCAUGUUUGAGGAUCAAGGACCGGGUAUAUAUAAG

>  <recordedMeasurement>
25.3 nM

$$$$
>  <sequenceContent>
GAUUAAACAUGAGGAUCACCCAUGUAUAUACGAGGACCGGUACGGCCGCCACUCGAAAACGAGUAUCCUCGAAUAAACAUGAUAA

>  <recordedMeasurement>
37.2 nM

$$$$

----------
// values below are reported apparent Kd
# Tested on: MS2 coat protein
# protocolDescription: apparent Kd, MS2 coat protein; higher = weaker binding; RNA-MaP array
# conditionSummary: designed as: ON switch for tryptophan; no ligand

>  <sequenceContent>
CCUCACAUGAGGAUCACCCAUGUCUUUACACGAGGACCGGUACGGCCGCCACUCGUUCACAAAACAACCAGAAGUGAUGCCUACA

>  <apparent Kd>
0.14 µM

$$$$
>  <sequenceContent>
AGGGACAUGAGGAUCACCCAUGUUGAAACUCGAGGACCGGUACGGCCGCCACUCGUAUAAUCGAUGUCCAUUUGGGAUUCCGGCU

>  <apparent Kd>
0.0253 µM

$$$$
>  <sequenceContent>
GGCUGCGAUGGCGGAAAUUAUUUACAUAGGCGAGGACCGGUACGGCCGCCACUCGAACGUACAUGAGGAUCACCCAUGUGAUAAU

>  <apparent Kd>
0.0718 µM

$$$$
>  <sequenceContent>
UGUCCGUGAUCGGCCGCCACUCAACAAACCUGUGGAAACUGACAUGAGGAUCACCCAUGUUCUUGGAGGACCGGGAUUGCUUCGA

>  <apparent Kd>
0.0146 µM

$$$$
>  <sequenceContent>
AUUAACAUGAGGAUCACCCAUGUGGCCCACCGAGGACCGGUACGGCCGCCACUCGUCGGAAAGGCUAAAUUUAUGAAGUCCAAAA

>  <apparent Kd>
0.0187 µM

$$$$

----------
# Tested on: MS2 coat protein
# protocolDescription: apparent Kd, MS2 coat protein; higher = weaker binding; RNA-MaP array; FMN 200 µM where present
# conditionSummary: ligand present: flavin mononucleotide; designed as: OFF switch for flavin mononucleotide

>  <sequenceContent>
CUAUUUAGUGCCUCAUGUACAUGAGGAUCACCCAUGUUAACUUAGGAUAUAUUUAUAUUGAUAGAGUAGAAGGAAGUACUAUUU

>  <apparent Kd>
18.8 nM

$$$$
>  <sequenceContent>
UUUUAGGGAGGAUAUACAUUUUUUUUAUUAUCCUCAUUAUUACAUGAGGAUCACCCAUGUAGAAGGCCCAUUUU

>  <apparent Kd>
146 nM

$$$$
>  <sequenceContent>
CAUAACUUUUCUCAUGUAAACAUGAGGAUCACCCAUGUAAUGAGAAGGAGGAGGAAGAGAGAAUCCUAGGAUAUCAGAAUUGUU

>  <apparent Kd>
6.84 nM

$$$$
>  <sequenceContent>
GUAAAUCAUGUAGGAUAUGCAUGGCGAAGCUACGCAGAAGGACAUGAGGAUCACCCAUGUCUCUCCGUCUGCAUACAGACGGAG

>  <apparent Kd>
230 nM

$$$$
>  <sequenceContent>
GGCGGCAAUGAGAAGGGUCACAUGAGGAUCACCCAUGUGCUCUUCGCCGUGACAGGAUAUCAUCGCCGUCAGGUUAGAUUUUUG

>  <apparent Kd>
26.1 nM

$$$$
>  <sequenceContent>
AAAAAUGGAGGAUAUACAUGAGGAUCACCCAUGUGUGGCCAUACUAUGUGCUCGUCAGGUAGAAGGCCAAAAAA

>  <apparent Kd>
46 nM

$$$$
>  <sequenceContent>
CAGUACUGAGGAUAUACAUGAGGAUCACCCAUGUGCUUUAGCUAGGAUACUAGCACCAGUAGAAGGCAGUACUG

>  <apparent Kd>
23.8 nM

$$$$
